pIC50: −log10 of the molar value.
Test system Aurora kinase A (Homo sapiens, UniProt O14965), pIC50 listed for each of the molecules.

Readout pIC50 for Cc1cc2nnccc2cc1Nc1ncc2c(n1)n([C@H]1CC[C@](C)(O)CC1)c(=O)n2C [US11884671, Example 17] , test system Aurora kinase A (Homo sapiens, UniProt O14965), was < 5.00

Readout pIC50 for Cc1cc2ncccc2cc1Nc1ncc2c(n1)n([C@H]1CC[C@@](C)(O)CC1)c(=O)n2C [US11884671, Example 14] , test system Aurora kinase A (Homo sapiens, UniProt O14965), was < 5.00

Readout pIC50 for Cc1cc2ncccc2cc1Nc1ncc2c(n1)n([C@H]1CC[C@](C)(O)CC1)c(=O)n2C [US11884671, Example 15] , test system Aurora kinase A (Homo sapiens, UniProt O14965), was < 5.00

Readout pIC50 for Cc1cc2nnccc2cc1Nc1ncc2c(n1)n([C@H]1CC[C@@](C)(O)CC1)c(=O)n2C [US11884671, Example 16] , test system Aurora kinase A (Homo sapiens, UniProt O14965), was < 5.00
